Task for the reader: assign each of the following compounds its reported inhibition.
Target Of Assay: Testis-specific serine/threonine-protein kinase 2 (Homo sapiens) (UniProt Q96PF2);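 also: each value is the mean percent inhibition of TSSK2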
Sequence (Q96PF2 whole entry): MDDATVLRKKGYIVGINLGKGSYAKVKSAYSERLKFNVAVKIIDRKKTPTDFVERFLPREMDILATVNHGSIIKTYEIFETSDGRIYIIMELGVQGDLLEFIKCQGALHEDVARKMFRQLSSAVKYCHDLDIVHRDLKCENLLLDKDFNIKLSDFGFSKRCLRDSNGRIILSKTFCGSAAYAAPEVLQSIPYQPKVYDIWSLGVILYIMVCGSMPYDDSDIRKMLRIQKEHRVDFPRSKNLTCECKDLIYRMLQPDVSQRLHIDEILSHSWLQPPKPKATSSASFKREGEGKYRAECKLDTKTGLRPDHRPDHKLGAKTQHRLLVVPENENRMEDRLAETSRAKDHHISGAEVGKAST
Condition Parameters: at 1 µM
Answers are plain numbers, in %.

Below are 2 compounds. Give each one its inhibition.
1. Nc1nccc(-c2c(-c3ccc(F)cc3)ncn2C2CCC(O)CC2)n1 (stereo not given)
2. O=C(Nc1n[nH]c2nc(-c3ccc(O)cc3)c(Br)cc12)C1CC1

Reply:
1: -0.41; 2: 4.53

Please report inhibition for every entry that follows.
1. O=C(Nc1ccc(Oc2ccc3[nH]c(NC(=O)c4ccccc4)nc3c2)cc1)Nc1cc(C(F)(F)F)ccc1F
2. NC(=O)c1ccc(Oc2nccc(-c3c(-c4ccc(F)cc4)ncn3C3CCNCC3)n2)cc1
3. O=C(Nc1n[nH]c2cc(-c3cc(F)ccc3F)ccc12)C1CC1
4. Fc1ccc(-c2ncn(C3CCNCC3)c2-c2ccnc(Oc3ccc4c(c3)OCO4)n2)cc1
5. Clc1ccc(CNc2nccc(-c3cnn4ncccc34)n2)cc1
6. O=C1Nc2ccc(I)cc2C1=Cc1cc(Br)c(O)c(Br)c1
7. Cc1ccc(NC(=O)c2ccoc2)cc1-c1ccc(C(=O)NCC2CC2)cc1

Reply:
[0.74, 2.46, 0.5, 4.26, -1.43, 2.81, 1.22]

Per the record, "COC(=O)Nc1nc2ccc(Sc3ccc(NC(=O)Nc4cc(C(F)(F)F)ccc4F)cc3)cc2[nH]1" has inhibition of -1.84

----------
Target Of Assay: SRSF protein kinase 1 (Homo sapiens) (UniProt Q96SB4);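 also: reported values are mean percent inhibition of SRPK1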
Sequence (Q96SB4 whole entry): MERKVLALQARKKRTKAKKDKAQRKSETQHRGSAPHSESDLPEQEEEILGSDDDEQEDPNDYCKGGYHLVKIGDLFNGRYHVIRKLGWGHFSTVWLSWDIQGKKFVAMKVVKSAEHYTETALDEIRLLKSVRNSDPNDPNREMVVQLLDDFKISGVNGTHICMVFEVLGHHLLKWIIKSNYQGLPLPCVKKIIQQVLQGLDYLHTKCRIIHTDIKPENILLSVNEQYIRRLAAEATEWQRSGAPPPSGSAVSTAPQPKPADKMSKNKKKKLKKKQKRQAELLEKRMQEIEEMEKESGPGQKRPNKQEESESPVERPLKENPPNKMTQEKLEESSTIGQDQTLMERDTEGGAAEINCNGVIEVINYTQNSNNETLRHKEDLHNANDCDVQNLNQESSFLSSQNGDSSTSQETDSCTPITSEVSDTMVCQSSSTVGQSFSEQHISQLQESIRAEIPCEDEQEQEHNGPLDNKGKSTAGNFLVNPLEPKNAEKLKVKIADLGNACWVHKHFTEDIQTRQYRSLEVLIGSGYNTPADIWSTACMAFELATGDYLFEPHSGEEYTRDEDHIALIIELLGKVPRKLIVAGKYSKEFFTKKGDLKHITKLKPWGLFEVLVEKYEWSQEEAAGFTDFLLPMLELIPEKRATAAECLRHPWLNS
Condition Parameters: at 1 µM
Reported Property: inhibition (%)
Numbers only, in %.

smiles_notation=Cc1ccc(C(=O)NC(C)C)cc1-c1ccc(C(=O)NCC2CC2)cc1 observed_measurement=30.8
smiles_notation=O=C1Nc2ccc(I)cc2C1=Cc1cc(Br)c(O)c(Br)c1 observed_measurement=-2.51
smiles_notation=O=C(Nc1ccc(Oc2ccc3[nH]c(NC(=O)c4ccccc4)nc3c2)cc1)Nc1cc(C(F)(F)F)ccc1F observed_measurement=7.91

Would you be so kind as to report inhibition for each listed record?
1. CS(=O)(=O)CCNCc1cc(-c2cc3c(Nc4ccc(OCc5cccc(F)c5)c(Cl)c4)ncnc3s2)cs1
2. NC(=O)c1cc(-c2ccncc2)cc(-c2ccccc2)c1N

Reply:
-2.78
-0.84

----------
Target Of Assay: Serine/threonine-protein kinase Nek7 (Homo sapiens) (UniProt Q8TDX7);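 also: figures are averaged percent inhibition of NEK7 kinase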
Sequence (Q8TDX7 whole entry, looked up): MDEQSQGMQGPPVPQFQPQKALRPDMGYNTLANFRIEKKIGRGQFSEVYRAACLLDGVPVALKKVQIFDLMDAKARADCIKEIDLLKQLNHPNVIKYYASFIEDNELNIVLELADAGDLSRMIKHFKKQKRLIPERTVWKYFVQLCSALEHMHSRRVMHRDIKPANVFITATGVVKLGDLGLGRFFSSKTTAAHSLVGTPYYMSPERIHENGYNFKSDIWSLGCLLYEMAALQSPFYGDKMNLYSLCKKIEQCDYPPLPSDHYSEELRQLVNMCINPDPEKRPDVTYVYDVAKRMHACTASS
Condition Parameters: at 0.1 µM
For each record, write down the corresponding inhibition.
Numbers only, in %.

Here is how some molecules turned out for inhibition.
smiles_notation=CCN(CC)Cc1ccc(Nc2nccc(-c3cnn4ncccc34)n2)cc1 reported_property=inhibition unit_descriptor=% observed_measurement=3.37
smiles_notation=O=C1Nc2ccc(I)cc2C1=Cc1cc(Br)c(O)c(Br)c1 reported_property=inhibition unit_descriptor=% observed_measurement=4.66
smiles_notation=O=C1Nc2ccccc2/C1=C/Nc1ccc(-n2cncn2)cc1 reported_property=inhibition unit_descriptor=% observed_measurement=5.44
smiles_notation=O=C(Nc1n[nH]c2cc(-c3cc(F)ccc3F)ccc12)C1CC1 reported_property=inhibition unit_descriptor=% observed_measurement=6.28

Can you give me inhibition for all of these, one by one?
1. CN(C)CCCNc1nccc(-c2c(-c3ccc(F)cc3)nn3cc(C(F)(F)F)ccc23)n1
2. NS(=O)(=O)c1ccc(Nc2cc(-c3ccc(O)c(F)c3)n[nH]2)cc1

Reply:
1. 2.85
2. -0.59
